Value source: patent US8163509B2

# Tested on: SW1463 CRC cell line
# method.description: SRB proliferation assay, 72 h
# Type: cell-based
# experimental.parameters: Homo sapiens, 72 hours, read-out: IC50, proliferation, OSI-906 (SRB)
pIC50: −log10 of the molar value.
measure: pIC50

Ask: What is its pIC50 for SW1463 CRC cell line? Entry: `C[C@]1(O)C[C@@H](c2nc(-c3ccc4ccc(-c5ccccc5)nc4c3)c3c(N)nccn32)C1`
Reply: < 5.30

----------
# Tested on: SW48 CRC cell line
# method.description: SRB proliferation assay, 72 h
# Type: cell-based
# experimental.parameters: Homo sapiens, read-out: S/I/R to OSI-906
measure: IC50

Ask: What measured IC50 is associated with C[C@]1(O)C[C@@H](c2nc(-c3ccc4ccc(-c5ccccc5)nc4c3)c3c(N)nccn32)C1 [OSI-906] on SW48 CRC cell line?
Reply: > 5 µM

----------
# Test system: SW1116 CRC cell line
# method.description: SRB proliferation assay, 72 h
# Assay type: cell-based
# experimental.parameters: Homo sapiens, SW 1116, 72 hours, read-out: IC50, proliferation, OSI-906 (SRB)
pIC50: −log10 of the molar value.
measure: pIC50

Ask: I have this compound here, C[C@]1(O)C[C@@H](c2nc(-c3ccc4ccc(-c5ccccc5)nc4c3)c3c(N)nccn32)C1 [OSI-906] , and I need its recorded pIC50.
Reply: < 5.30

----------
# Tested on: HCT15 CRC cell line
# method.description: SRB proliferation assay, 72 h
# Assay type: cell-based
# experimental.parameters: Homo sapiens, HCT-15, read-out: S/I/R to OSI-906
pIC50: −log10 of the molar value.
measure: pIC50

Ask: Value wanted: pIC50 (HCT15 CRC cell line) of entry `C[C@]1(O)C[C@@H](c2nc(-c3ccc4ccc(-c5ccccc5)nc4c3)c3c(N)nccn32)C1`
Reply: < 5.30

----------
# Test system: LS180 CRC cell line
# method.description: SRB proliferation assay, 72 h
# Format: cell-based
# experimental.parameters: Homo sapiens, read-out: S/I/R to OSI-906
pIC50: −log10 of the molar value.
measure: pIC50

Ask: Sample `C[C@]1(O)C[C@@H](c2nc(-c3ccc4ccc(-c5ccccc5)nc4c3)c3c(N)nccn32)C1` — what was its pIC50?
Reply: < 5.30

----------
# System: HT29 CRC cell line
# method.description: SRB proliferation assay, 72 h
# Assay type: cell-based, human
# experimental.parameters: Homo sapiens, HT-29, HT29; read-out: S/I/R to OSI-906
# Protocol: FIG. 17: Results of cell proliferation assay on the panel of 27 CRC cell lines. Cell proliferation was evaluated by SRB following exposure to OSI-906 for 72 hours. […] Cytotoxicity and Combination Effects: HT29, HCT116, RKO, and LS513 CRC cell lines were exposed to 0-10 nM SN-38 (7-Ethyl-10-hydroxy-camptothecin), 0-10 μM Oxaliplatin, or 0-50 μM 5-Fluorouracil (5-FU) for 72 hours. […] The results of the combinations were analyzed by the Chou and Talalay method with Calcusyn (Biosoft, Ferguson, Mo.). […]
pIC50: −log10 of the molar value.
measure: pIC50

Ask: Which pIC50 reading was recorded for the molecule `C[C@]1(O)C[C@@H](c2nc(-c3ccc4ccc(-c5ccccc5)nc4c3)c3c(N)nccn32)C1` ?
Reply: ≥ 5.82
